Catalogue of normalized growth readings, one per entry.
# assay_text: chemical genetic growth profiling, strain panel (AID 1159580);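 also: tested at 20 µM; growth read once vehicle control cultures reached saturation at 30 °C; 1 = growth at the plate median or of vehicle wells; lower values mean less growth of the strain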
# assay_setup: S. cerevisiae deletion strains, growth OD, locus YPL106C, strain sse1, stronger effect = lower value
Among all 5,500 compounds or so, about 2,000 (36%) were called active. About 18% were inconclusive and are not listed. Some of the results follow.
Would you mind answering with just the numeric figure?

Examples with their reported normalized growth follow.
C[n+]1cc2c3c(ccc2c2ccc4cc5c(cc4c21)OCO5)OCO3
0.741
CC(C)c1ccc2c(c1O)CC[C@H]1C3=C(CC[C@]21C)C(=O)OC3
0.965
O=c1cc(-c2cccc(O)c2)oc2ccc(O)cc12
0.827
O=C1CC[C@]23C=CC(=O)NCCCCNCCCNC(=O)/C=C/c4ccc(c2c4)O[C@@H]3C1
1.06
O=c1cc(-c2ccc(O)c(O)c2)oc2ccccc12
0.938

Entry FC(F)(F)C(Cl)Br (stereo unspecified) has what normalized growth? 1.02

For the compound CN1CCOC(c2ccccc2)c2ccccc2C1 (stereo unspecified) , what normalized growth is on record? 0.921

Sample COc1cccc(-c2cc(=O)c3ccc(OC)cc3o2)c1 — what was its normalized growth? 0.84

Entry under review: COc1cc([C@@H]2c3cc4c(cc3[C@H](OC(C)=O)[C@H]3COC(=O)[C@H]23)OCO4)cc(OC)c1OC . Reported normalized growth? 1.02

Bench note: what normalized growth did Cn1c(=O)c2[nH]c(C3CCCC3)nc2n(C)c1=O show? 0.985

Look at this compound and give its reported normalized growth. CCCCC1C(=O)N(c2ccccc2)N(c2ccccc2)C1=O 1.01
